Molecular target: T1, human recombinant melanocortin-1 receptor (human, UniProt Q01726 1-317)
T1 construct: whole, on cells; membrane homogenates of HEK-293 cells; also called hMC1-R
T1 sequence (Q01726 whole entry): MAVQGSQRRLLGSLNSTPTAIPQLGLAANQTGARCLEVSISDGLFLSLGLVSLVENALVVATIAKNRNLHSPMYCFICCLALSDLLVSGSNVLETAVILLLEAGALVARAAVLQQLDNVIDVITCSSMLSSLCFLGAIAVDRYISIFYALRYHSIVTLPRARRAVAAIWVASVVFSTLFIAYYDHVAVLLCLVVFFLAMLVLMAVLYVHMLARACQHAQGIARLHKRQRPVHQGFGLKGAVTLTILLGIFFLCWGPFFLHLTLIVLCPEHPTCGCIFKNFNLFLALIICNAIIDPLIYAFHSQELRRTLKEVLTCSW
Assay: competitive inhibition of labelled NDP-α-MSH, hMC1-R membranes
Bridge positions count the residues as written; N and C are the ends. Square brackets hold non-standard residues; d marks the D form. Orn = NCCC[C@H](N)C(=O)O
Ki by entry:
propertyName: Ki (nM)

binder: Ac-R[Orn]N[dF]RWE-NH2 (lactam 2-7, also called peptide No. 154) [Ac-Arg-cyclo(Orn-Asn-D-Phe-Arg-Trp-Glu)-NH2]
unitLabel: nM
readoutNumber: 688
//
binder: Ac-REN[dF]RW[Orn]-NH2 (lactam 2-7, also called peptide No. 161) [Ac-Arg-cyclo(Glu-Asn-D-Phe-Arg-Trp-Orn)-NH2]
unitLabel: nM
readoutNumber: 155
//
binder: RXQFRWX (N-acetyl; X2 = Dab; D-Phe 4; X7 = hGlu; side-chain lactam Dab2-hGlu7; C-terminal amide, also called peptide No. 159) [Ac-Arg-cyclo(Dab-Gln-D-Phe-Arg-Trp-hGlu)-NH2]
unitLabel: nM
readoutNumber: 133
